System: human bladder cancer EJ cell line
testSummary: Cell viability MTT assay
Type: cell-based
experimentalSetup: Homo sapiens, EJ, 24 h, read-out: 50% inhibitory concentration (IC50)
experimentalEndpoint: pIC50
Notebook: values listed as pIC50 are -log10 of the concentration (mol/L).

pIC50 lookup needed for CC(C)=CCC[C@]1(C)C=Cc2c(O)c3c(c(CC=C(C)C)c2O1)O[C@]12C(=C[C@@H]4C[C@H]1C(C)(C)O[C@@]2(C/C=C(/C)C(=O)O)C4=O)C3=O , thanks.
5.31
